TARGET_DESC: lysozyme (Gallus gallus, UniProt P00698)
Construct: purchased Sigma-Aldrich
Sequence (P00698 19-147): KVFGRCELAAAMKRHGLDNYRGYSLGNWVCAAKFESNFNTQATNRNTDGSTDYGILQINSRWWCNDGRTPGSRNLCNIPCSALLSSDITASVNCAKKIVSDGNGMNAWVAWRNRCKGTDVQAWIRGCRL
METHOD_SUMMARY: Voltammetry, interaction with lysozyme
CONDITION_NOTES: SWV, 100 μM complex, 0 μM lysozyme, pH 6.8
Description: The pH of buffers was monitored on a Accumet XL50 pH meter. A GR-2000 electrical balance was used to weigh the various chemicals. Electrochemical measurements for cyclic voltammetry and square wave voltammetry were performed using Autolab instruments (Metrohm; Netherlands). […] The GCE was polished as a mirror-like surface with alumina slurry on a synthetic cloth before every electrochemical analysis. […]
The following molecules are shown together with reported Voltammetry peak potential values.
REPORTED_PROPERTY: Voltammetry peak potential (V)

MOLECULE: Oc1ccc[n+]2c1-c1c(O)ccc[n+]1[Au-]2([Cl])[Cl].[Cl-] [C1, [Au(BPYH)(Cl)2]Cl]
TARGET_DESC: lysozyme (Gallus gallus, UniProt P00698)
UNIT_OF_MEASURE: V
NUMERIC_READOUT: 0.7934

MOLECULE: Oc1ccc[n+]2c1-c1c(O)ccc[n+]1[Au-]21[S]C(N(Cc2ccccc2)Cc2ccccc2)=[S+]1.[Cl-].[Cl-] [C4, [Au(BPYH)(DBDTC)]Cl2]
TARGET_DESC: lysozyme (Gallus gallus, UniProt P00698)
UNIT_OF_MEASURE: V
NUMERIC_READOUT: 0.7883

MOLECULE: CCN(CC)C1=[S+][Au-]2([S]1)[n+]1cccc(O)c1-c1c(O)ccc[n+]12.[Cl-].[Cl-] [C3, [Au(BPYH)(DEDTC)]Cl2]
TARGET_DESC: lysozyme (Gallus gallus, UniProt P00698)
UNIT_OF_MEASURE: V
NUMERIC_READOUT: 0.7934

MOLECULE: CN(C)C1=[S+][Au-]2([S]1)[n+]1cccc(O)c1-c1c(O)ccc[n+]12.[Cl-].[Cl-] [C2, [Au(BPYH)(DMDTC)]Cl2]
TARGET_DESC: lysozyme (Gallus gallus, UniProt P00698)
UNIT_OF_MEASURE: V
NUMERIC_READOUT: 0.7883

The measurements presented in this section are drawn from patent US12103939B2.
